Each entry below carries its recorded Ki.
test.system: Amyloid-beta precursor protein (Homo sapiens, UniProt P05067)
Sequence (P05067 whole entry): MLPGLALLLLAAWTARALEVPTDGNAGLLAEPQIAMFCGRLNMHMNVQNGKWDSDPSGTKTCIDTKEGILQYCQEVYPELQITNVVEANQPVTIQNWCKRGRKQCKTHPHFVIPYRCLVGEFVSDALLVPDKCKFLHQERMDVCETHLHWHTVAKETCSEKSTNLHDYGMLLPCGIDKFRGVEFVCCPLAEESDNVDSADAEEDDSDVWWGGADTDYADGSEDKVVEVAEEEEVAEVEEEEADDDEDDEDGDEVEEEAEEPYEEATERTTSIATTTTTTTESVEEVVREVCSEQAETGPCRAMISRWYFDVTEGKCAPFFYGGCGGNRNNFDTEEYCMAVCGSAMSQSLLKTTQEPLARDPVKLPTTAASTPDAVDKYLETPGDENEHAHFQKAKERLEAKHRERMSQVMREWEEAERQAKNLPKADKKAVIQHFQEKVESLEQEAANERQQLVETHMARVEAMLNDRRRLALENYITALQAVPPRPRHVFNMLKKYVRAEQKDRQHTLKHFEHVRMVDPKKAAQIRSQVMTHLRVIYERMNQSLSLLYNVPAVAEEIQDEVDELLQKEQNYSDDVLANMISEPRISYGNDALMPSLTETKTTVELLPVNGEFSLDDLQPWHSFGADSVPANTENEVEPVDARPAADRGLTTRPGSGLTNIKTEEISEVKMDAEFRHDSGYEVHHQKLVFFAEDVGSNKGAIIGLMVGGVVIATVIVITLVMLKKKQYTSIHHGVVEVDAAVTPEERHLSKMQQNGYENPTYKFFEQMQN
assay.comment: Binding affinity to beta-amyloid plaque in Alzheimer's disease patient brain cortex after 1 hr by thioflavin-S based autoradiography

Use these answered entries as a reference point.
CN(C)c1ccc(-c2cnc3cc(OCC[18F])ccc3n2)cc1    0.895 nM
CNc1ccc(-c2cnc3ccc(OCC[18F])cc3n2)cc1    > 242 nM
CN(C)c1ccc(-c2cnc3ccc(OCC[18F])cc3n2)cc1    111 nM
Nc1ccc(-c2cnc3cc(OCC[18F])ccc3n2)cc1    > 242 nM
Nc1ccc(-c2cnc3ccc(OCC[18F])cc3n2)cc1    > 242 nM

Attention now turns to another entry.
Identify measured Ki corresponding to `CNc1ccc(-c2cnc3cc(OCC[18F])ccc3n2)cc1`
15.7 nM
